- System: mice
- method: in vivo
- run.parameters: FG 8033 compared with the listed compound, mice s.c.
result.type: FG 8033 is better by: T.I. % (%)

>>> df
                                   compound                   result_type  observed
0  COc1ccc(OC[C@@H]2CNCC[C@H]2c2ccccc2)cc1 (single isomer, unassigned) [FG 7006, reference compound]  FG 8033 is better by: T.I. %      4444
1  CC(=O)O.COc1ccc(OC[C@@H]2CNCC[C@H]2c2ccc(F)cc2)cc1 (single isomer, unassigned) [FG 8035]  FG 8033 is better by: T.I. %      3333
2  COc1ccc(OC[C@@H]2CN(C)CC[C@H]2c2ccc(F)cc2)cc1 (relative stereo) [FG 98-I]  FG 8033 is better by: T.I. %       174
3  COc1ccc(OC[C@H]2CNCC[C@@H]2c2ccccc2)cc1 (single isomer, unassigned) [FG 4996, reference compound]  FG 8033 is better by: T.I. %      5714
